Task for the reader: assign each of the following compounds its reported Growth Rate.
tested on: HEK-293T; assay: Incucyte cell viability with HEK293T; type: toxicity, cell-based; settings: human, 12 h, 10 µM, compound concentration 10 uM, replicate number 1; also: unitless GR value; below 1 slowed growth and below 0 cell loss
Please reply with the number alone, leaving off any unit.

Growth Rate reading for N=C(N)NCCC[C@H](NC(=O)CC1(CC(=O)N2CCN(C(c3ccccc3)c3ccccc3)CC2)CCCC1)C(=O)NCc1ccccc1.O=C(O)C(F)(F)F.O=C(O)C(F)(F)F : 0.89

# compound Cn1cc(-n2cnc3c(NCc4nc5cc(Cl)c(Cl)cc5[nH]4)nc(N4CCOCC4)nc32)cn1 ; its Growth Rate = -0.21

Recorded Growth Rate (compound Cc1ccc(NC(=O)c2ccc3cnccc3c2)cc1C(=O)Nc1cnc(Nc2cccc(NC3CCN(C(=O)/C=C/CN(C)C)CC3)c2)nc1 ): -0.87

// c1ccc2c(c1)SCc1c-2[nH]c2ccccc12 : Growth Rate value = -0.76

Sample CC#CC(=O)N1CCN(c2nc(-c3ccc(Oc4ccccc4)cc3)c(C(N)=O)s2)CC1 ; Growth Rate observed: 0.43

Reported Growth Rate of Cc1c(C(=O)Nc2cccc(C(F)(F)F)c2)cc(-c2ccccc2)n1CCCN1CCOCC1.Cl : 0.11

Noted for CN1[C@@H](CC(=O)c2ccccc2)CCC[C@H]1C[C@H](O)c1ccccc1.Cl [LOBELINE HYDROCHLORIDE] : its Growth Rate reads 0.62

GET /value?item= C=CC(=O)Nc1cccc(C(=O)Nc2ccc(Nc3cc(-c4c(-c5ccc(F)cc5)nc(SC)n4C)ccn3)cc2)c1 &field=Growth Rate returns 0.55

// Growth Rate value for N#CN1CC[C@H](C(=O)Nc2nc3c(s2)CN(C(=O)CN=[N+]=[N-])CC3)C1 : 0.99

Please fill in: Growth Rate reported for O=C1Nc2nc(-c3c(O)cccc3OCC3CC3)cc([C@@H]3CCCNC3)c2CO1 = 0.62

Recorded Growth Rate (compound Fc1cccc(-n2cnc3c(NCc4nc5ccc(F)c(F)c5[nH]4)nc(N4CCOCC4)nc32)c1 ): -0.36

Entry CC1(C)CCC(CN2CCN(c3ccc(C(=O)NS(=O)(=O)c4ccc(NCC5CCOCC5)c([N+](=O)[O-])c4)c(Oc4cnc5[nH]ccc5c4)c3)CC2)=C(c2ccc(Cl)cc2)C1 — recorded Growth Rate = 0.58

# Growth Rate of CCN1C(=O)/C(=C(\NC2CCN(C)CC2)c2ccc3c(c2)OCO3)c2cc(C(C)=O)ccc21 = 0.64

Measured Growth Rate, CC(C)Oc1ccc(F)c(-c2cnc(N)c(C(=O)Nc3cnccc3N3CCC[C@@H](C(=O)O)C3)n2)c1 : -0.19

compound CCS(=O)(=O)Nc1cccc(Oc2cncc(Nc3ccc(I)cc3F)c2C(N)=O)c1 , Growth Rate observed: 0.82

The reported Growth Rate of the compound CC(C)S(=O)(=O)c1ccccc1Nc1nc(N[C@@H]2CCCN(CCCCCCCNC(=O)COc3cccc4c3C(=O)N(C3CCC(=O)N(C)C3=O)C4=O)C2)ncc1Cl (stereo partly specified) was -0.4
